Values from PubChem BioAssay

System: Human papillomavirus type 1a protein E7 (residues 44-93)
Protocol Text: HPV1a E7 fragment binders on microarrays, primary screen, biochemical, small-molecule microarray, residues 44-93, 635 nm fluorescence (AID 1108);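 further: E7 fragment applied at 1 µg/mL in TBST for 1 h at 4 C; score combines spot fluorescence with its signal to noise ratio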
Recorded Conditions: small-molecule microarray binding, fluorescence 635 nm; higher = more signal
Decide by composite z-score: equal to or exceeding 0.4 means 1.0, less means 0.0.

Examples with answers:
[ask] Answer whether composite z-score of CCOC(=O)[C@H](Cc1ccccc1)NC(=O)CCC1CC(OC(=O)NCc2cccc3ccccc23)CC2(CCCC(COC(=O)NCc3cccc(C(F)(F)F)c3)O2)O1 (some centres not stated) is greater than or equal to 0.4.
[reply] 1.0

[ask] Answer whether composite z-score of CC(C)C[C@H](NC(=O)CCC1CC(OC(=O)NCc2cccc3ccccc23)CC2(CCCC(COC(=O)NCc3ccccc3)O2)O1)C(=O)NCC(c1ccccc1)c1ccccc1 (some centres not stated) is greater than or equal to 0.4.
[reply] 1.0

[ask] Answer whether composite z-score of Cc1cc2c(nc1C)CCCCN2CC(C)ON=C1[C@H]2CCn3c(=O)n(-c4ccccc4)c(=O)n3[C@H]2[C@H](O)[C@@H]2O[C@H]12 (some centres not stated) is greater than or equal to 0.4.
[reply] 0.0

[ask] Answer whether composite z-score of Cn1c(=O)n2n(c1=O)[C@H]1[C@H](O)[C@@H]3O[C@@H]3C(=NOCc3ccccc3)[C@H]1CC2 is greater than or equal to 0.4.
[reply] 1.0

[ask] Answer whether composite z-score of CC=CC1=C(CO)C(=O)[C@@H]2O[C@@H]2C1=O is greater than or equal to 0.4.
[reply] 0.0

[ask] Answer whether composite z-score of CCOC(=O)[C@H](Cc1ccccc1)NC(=O)CCC1CC(OC(=O)NCc2cccc3ccccc23)CC2(CCCC(COC(=O)NCCC(C)C)O2)O1 (some centres not stated) is greater than or equal to 0.4.
[reply] 0.0

Further cases:
[ask] Answer whether composite z-score of CC(C)=CCCC(C)=CCON=C1C[C@@H](O)[C@@H](O)[C@@H]2[C@@H]3C(=O)N(C(C)(C)C)C(=O)[C@@H]3CC[C@H]12 is greater than or equal to 0.4.
[reply] 0.0
